Form field: hERG current change (%, negative = inhibition) at 10uM (one value per entry).
- System tested: human ether-à-go-go-related gene (hERG) potassium channel (human);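 further: peak tail current of the secondary pulse compared with the same well before compound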
- Sequence (Q12809 whole entry, looked up): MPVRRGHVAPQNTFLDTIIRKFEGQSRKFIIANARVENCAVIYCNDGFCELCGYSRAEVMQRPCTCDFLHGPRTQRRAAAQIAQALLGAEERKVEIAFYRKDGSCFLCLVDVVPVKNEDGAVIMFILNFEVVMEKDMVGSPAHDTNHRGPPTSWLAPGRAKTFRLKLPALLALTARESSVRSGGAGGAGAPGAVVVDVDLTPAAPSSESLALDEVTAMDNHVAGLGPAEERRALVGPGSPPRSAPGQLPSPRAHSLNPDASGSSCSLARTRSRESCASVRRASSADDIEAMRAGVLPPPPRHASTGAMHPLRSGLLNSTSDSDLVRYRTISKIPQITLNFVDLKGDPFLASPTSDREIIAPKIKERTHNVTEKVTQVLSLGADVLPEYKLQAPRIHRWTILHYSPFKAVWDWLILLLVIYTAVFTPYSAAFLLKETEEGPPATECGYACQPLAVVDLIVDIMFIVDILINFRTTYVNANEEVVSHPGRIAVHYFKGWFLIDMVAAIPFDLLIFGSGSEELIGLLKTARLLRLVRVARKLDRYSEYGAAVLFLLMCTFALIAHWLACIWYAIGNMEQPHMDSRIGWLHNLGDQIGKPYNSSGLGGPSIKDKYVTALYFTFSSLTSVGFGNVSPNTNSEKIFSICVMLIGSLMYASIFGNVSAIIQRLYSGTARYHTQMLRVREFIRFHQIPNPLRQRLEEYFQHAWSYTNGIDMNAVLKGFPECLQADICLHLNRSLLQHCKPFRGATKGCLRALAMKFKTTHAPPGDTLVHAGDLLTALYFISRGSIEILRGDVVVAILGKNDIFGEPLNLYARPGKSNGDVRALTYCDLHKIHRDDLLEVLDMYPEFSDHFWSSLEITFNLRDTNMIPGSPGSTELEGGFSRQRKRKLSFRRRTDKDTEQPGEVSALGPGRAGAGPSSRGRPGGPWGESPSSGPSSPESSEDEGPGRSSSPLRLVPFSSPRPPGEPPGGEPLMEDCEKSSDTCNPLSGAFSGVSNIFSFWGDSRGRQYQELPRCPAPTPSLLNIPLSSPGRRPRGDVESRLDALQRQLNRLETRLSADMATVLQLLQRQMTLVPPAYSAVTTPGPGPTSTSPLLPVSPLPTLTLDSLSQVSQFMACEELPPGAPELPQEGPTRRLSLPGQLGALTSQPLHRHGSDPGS
- Method description: primary screen, population patch clamp on CHO cells stably expressing hERG; higher = less effect of the substance
Hit rate of the full screen: of about 310,000 compounds, about 14,000 (4.5%) showed an effect of 50% or more. Effects have a minus sign here. The sample as a whole holds a higher share of strong results than the screen did.
Measured endpoint: hERG current change (%, negative = inhibition) at 10uM

* O=C(c1cc(-c2ccccc2)nc2ccccc12)N1CCN(c2ccccn2)CC1 | -27.6%
* COc1ccc(OCc2nnc(SCC(=O)NCc3ccco3)o2)cc1 | -14.4%
* O=C(CSc1nnc(CNC(=O)c2ccco2)o1)Nc1ccc(OC(F)(F)F)cc1 | -52.6%
* COc1ccc(Cc2nnc(SCC(=O)NCc3ccco3)o2)cc1 | 8.75%
* Cc1cccc(OCc2nnc(SCC(=O)Nc3cccc(C(=O)N4CCOCC4)c3)o2)c1C | -2.16%
* CCc1ccc(OCc2nnc(SCC(=O)Nc3cccc(C(=O)N4CCOCC4)c3)o2)cc1 | -61.4%
* COc1cccc(CN2CCN(C(=O)c3cc(-c4ccncc4)nc4ccc(C)cc34)CC2)c1 | -71%
* CC(=O)N1CC[n+]2c(-c3ccc(Cl)cc3)csc21.[Br-] | -1.19%
* O=C(c1cc(-c2ccncc2)nc2ccccc12)N1CCN(c2ccccn2)CC1 | -63.5%
* COc1ccccc1NC(=O)c1cc(-c2ccc(C)o2)nc2ccccc12 | -60.7%
* COc1ccccc1OCCOCCOc1c(C)cc(C)cc1Br | 8.26%
* COc1ccc(OCc2nnc(SCC(=O)Nc3cccc(C(C)=O)c3)o2)cc1 | 4.32%
* COCC(C)n1c(C)cc(C(=O)CSc2cc(C)c3ccccc3n2)c1C (centres unmarked) | 4.64%
* CCc1ccc(OCc2nnc(SCC(=O)NCc3ccco3)o2)cc1 | -55.2%
* CN(CCNC(=O)C1CCN(S(=O)(=O)c2cnc[nH]2)CC1)Cc1ccccc1 | 12.6%
* CC(OC(=O)CNC(=O)COc1ccccc1)C(=O)N(C)Cc1ccccc1 (centres unmarked) | 5.07%
* COc1ccc(CNC(=O)C(c2ccco2)N(Cc2cccs2)C(=O)Cc2cccs2)cc1 (centres unmarked) | 10.6%
* O=S(=O)(NCc1ccccc1)[C@@H]1CC2C=CC1C2 (some centres unmarked) | 1.81%
* Cc1ccc(-c2cc(C(=O)Nc3ccccc3C)c3ccccc3n2)o1 | 9.38%
* COc1ccc(-c2cc(C(=O)N3CCN(c4ccccn4)CC3)c3ccccc3n2)cc1 | -5.51%
